experiment: solvent given as SMILES; details: in CCCCO
Documented emission maximum across a set of compounds
Write down the numeric answer in nm and omit the unit.

{"COMPOUND": "CCCCC[n+]1ccc(/C=C/c2ccc(N(C)C)c3ccccc23)c2ccccc21", "UNITS LABEL": "nm", "emission maximum": 695}
{"COMPOUND": "CCCCCCC(CCCCCC)N1C(=O)c2cccc3c(-c4ccc(OC)c5ccccc45)ccc(c23)C1=O", "UNITS LABEL": "nm", "emission maximum": 576.8}
{"COMPOUND": "Nc1ccc2cc(-c3ccc(C(F)(F)F)cc3)oc(=O)c2c1", "UNITS LABEL": "nm", "emission maximum": 460}
{"COMPOUND": "COC(=O)C(Cc1ccc2oc(-c3ccc(Nc4ccccc4)cc3)nc2c1)NC(=O)OC(C)(C)C (stereo not given)", "UNITS LABEL": "nm", "emission maximum": 441.5}

Proceed to the following item.
Lookup: Item ClC(Cl)=C1c2ccccc2C(C2(Cl)c3ccccc3C(=C(Cl)Cl)c3ccccc32)c2ccccc21 (stereo not given) has what recorded emission maximum?
Found: 446.26
